Cited source: ChEMBL document CHEMBL4152286

# assay-comment: Solubility of compound in 15% DMSO by UV-Vis spectrophotometric method
# Format: physicochemical
recorded-metric: solubility (µM)

• O=c1[nH]c(=O)n([C@H]2C[C@H](O)[C@@H](CO)O2)cc1C#Cc1ccc2c3cccc4cccc(c5cccc1c52)c43 = 7.8

###

# assay-comment: Solubility of compound in 5% DMSO by UV-Vis spectrophotometric method
# Format: physicochemical
recorded-metric: solubility (µM)

• CSCO[C@H]1C[C@H](n2cc(C#Cc3ccc4c5cccc6cccc(c7cccc3c74)c65)c(=O)[nH]c2=O)O[C@@H]1CO = 150
• [N-]=[N+]=NCO[C@H]1C[C@H](n2cc(C#Cc3ccc4c5cccc6cccc(c7cccc3c74)c65)c(=O)[nH]c2=O)O[C@@H]1CO = 680

###

Measured CC50 at 168 h of individual entries
# assay-comment: Cytotoxicity against PEK cells after 7 days by microscopic method
# Format: cell-based, Sus scrofa
# settings: pig
recorded-metric: CC50 at 168 h

* O=c1[nH]c(=O)n([C@H]2C[C@H](OCn3cc(CO)nn3)[C@@H](CO)O2)cc1C#Cc1ccc2c3cccc4cccc(c5cccc1c52)c43 | > 50 µM
* O=c1[nH]c(=O)n([C@H]2C[C@H](OCn3cc(CCCCO)nn3)[C@@H](CO)O2)cc1C#Cc1ccc2c3cccc4cccc(c5cccc1c52)c43 | > 50 µM
* O=c1[nH]c(=O)n([C@H]2C[C@H](OCn3cc(CCO)nn3)[C@@H](CO)O2)cc1C#Cc1ccc2c3cccc4cccc(c5cccc1c52)c43 | > 50 µM
* CSCO[C@H]1C[C@H](n2cc(C#Cc3ccc4c5cccc6cccc(c7cccc3c74)c65)c(=O)[nH]c2=O)O[C@@H]1CO | > 50 µM
* O=c1[nH]c(=O)n([C@H]2C[C@H](OCn3cc(CCCO)nn3)[C@@H](CO)O2)cc1C#Cc1ccc2c3cccc4cccc(c5cccc1c52)c43 | > 50 µM
* [N-]=[N+]=NCO[C@H]1C[C@H](n2cc(C#Cc3ccc4c5cccc6cccc(c7cccc3c74)c65)c(=O)[nH]c2=O)O[C@@H]1CO | 35 µM
